measurement_description: Inhibition of Saccharomyces cerevisiae alpha-glucosidase using p-nitrophenyl-alpha-D-[…] as substrate after 20 mins by UV/Vis spectrophotometric analysis
pIC50: −log10 of the molar value.
property_name: pIC50

molecule=O[C@H]1CN(Cc2ccccc2)C[C@@H]1O property_name=pIC50 observed_result=1.42
molecule=O[C@H]1CNC[C@@H]1O property_name=pIC50 observed_result=1.96
molecule=O[C@@H]1CN(Cc2ccccc2)C[C@H]1O property_name=pIC50 observed_result=1.60
molecule="C[C@H]1O[C@H](O[C@H]2[C@H](O)[C@@H](O)[C@@H](O[C@H]3[C@H](O)[C@@H](O)C(O)O[C@@H]3CO)O[C@@H]2CO)[C@H](O)[C@@H](O)[C@@H]1N[C@H]1C=C(CO)[C@@H](O)[C@H](O)[C@H]1O (stereo not given in full) [ACARBOSE]" property_name=pIC50 observed_result=1.60
molecule=CC(=O)O[C@H]1CNC[C@@H]1OC(C)=O property_name=pIC50 observed_result=1.90
